target: steroid sulphatase (Homo sapiens); construct: Sulphatase-positive human placenta from normal term pregnancies are thoroughly minced with scissors; from tissue; host or cells: human term placenta (2000 g supernatant / microsomes); assay: Inhibition of steroid sulphatase activity in placental microsomes (Protocol 2); type: biochemical; conditions: 1 μM; superscript 1 or 2 = run with the reference values of that footnote; -ve % means stimulation
measuredAttribute: Placental Microsomes % inhibition

Please provide the recorded Placental Microsomes % inhibition for CCCCCN(CCCCC)S(=O)(=O)O[C@H]1CCC2C3CCc4cc(O)ccc4C3CC[C@@]21C (stereo partly drawn) , tested on steroid sulphatase (Homo sapiens).
−11.8^2%

Please provide the recorded Placental Microsomes % inhibition for C[C@]12CCC3c4ccc(OS(N)(=O)=O)cc4CCC3C1CC[C@H]2OS(=O)(=O)N(Cc1ccccc1)Cc1ccccc1 (stereo partly drawn) , tested on steroid sulphatase (Homo sapiens).
58.2^1%

Please provide the recorded Placental Microsomes % inhibition for CCCCCN(CCCCC)S(=O)(=O)O[C@H]1CCC2C3CCc4cc(OS(N)(=O)=O)ccc4C3CC[C@@]21C (stereo partly drawn) , tested on steroid sulphatase (Homo sapiens).
23.7^2%

Please provide the recorded Placental Microsomes % inhibition for C[C@]12CCC3c4ccc(O)cc4CCC3C1CC[C@@H]2OS(=O)(=O)N(Cc1ccccc1)Cc1ccccc1 (stereo partly drawn) , tested on steroid sulphatase (Homo sapiens).
1.36^2%

Please provide the recorded Placental Microsomes % inhibition for CC(=O)NS(=O)(=O)O[C@H]1CCC2C3CCc4cc(O)ccc4C3CC[C@@]21C (stereo partly drawn) , tested on steroid sulphatase (Homo sapiens).
7.8^1%

Please provide the recorded Placental Microsomes % inhibition for C[C@]12CCC3c4ccc(O)cc4CCC3C1CC[C@H]2OS(=O)(=O)N(Cc1ccccc1)Cc1ccccc1 (stereo partly drawn) , tested on steroid sulphatase (Homo sapiens).
4.5^1%

---

Target: STS (Homo sapiens, UniProt P08842)
Sequence (P08842 22-583): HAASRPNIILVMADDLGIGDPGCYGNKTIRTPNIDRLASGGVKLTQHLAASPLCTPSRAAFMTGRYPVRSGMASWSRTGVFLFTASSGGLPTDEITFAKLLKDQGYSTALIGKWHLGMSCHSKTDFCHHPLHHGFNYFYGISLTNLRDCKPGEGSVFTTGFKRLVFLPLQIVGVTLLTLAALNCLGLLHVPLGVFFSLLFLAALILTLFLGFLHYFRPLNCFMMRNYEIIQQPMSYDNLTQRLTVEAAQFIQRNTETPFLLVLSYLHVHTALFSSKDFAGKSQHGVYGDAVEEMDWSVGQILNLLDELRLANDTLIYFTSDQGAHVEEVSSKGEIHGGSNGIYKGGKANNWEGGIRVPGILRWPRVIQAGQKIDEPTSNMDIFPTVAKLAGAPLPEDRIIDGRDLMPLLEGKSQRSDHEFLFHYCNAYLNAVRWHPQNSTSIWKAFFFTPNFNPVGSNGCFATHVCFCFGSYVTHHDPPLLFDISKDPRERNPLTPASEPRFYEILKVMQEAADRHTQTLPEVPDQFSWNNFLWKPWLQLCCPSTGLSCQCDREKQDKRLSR
Assay: Plate assay, % inhibition
Conditions: 0.1 μM; -ve % means stimulation
measuredAttribute: Plate assay % inhibition (%)
Numeric only. Scale: %

Please provide the recorded Plate assay % inhibition for `C[C@]12CC[C@@H]3c4ccc(OS(N)(=O)=O)cc4CC[C@H]3[C@@H]1CC[C@@H]2O` , tested on STS (Homo sapiens, UniProt P08842).
4

Please provide the recorded Plate assay % inhibition for C[C@]12CCC3c4ccc(OS(N)(=O)=O)cc4CCC3C1CC[C@H]2OS(=O)(=O)N(Cc1ccccc1)Cc1ccccc1 (stereo partly drawn) , tested on STS (Homo sapiens, UniProt P08842).
−18

Please provide the recorded Plate assay % inhibition for C[C@]12CCC3c4ccc(O)cc4CCC3C1CC[C@H]2OS(=O)(=O)N(Cc1ccccc1)Cc1ccccc1 (stereo partly drawn) , tested on STS (Homo sapiens, UniProt P08842).
11
